Procedure text: Dimensions (size, PDI) of DNPs co-assembled from IAJDs and Luc-mRNA by DLS
Format: physicochemical
Applied conditions: Table 13; DNPs, IAJD 4 mg/mL + Luc-mRNA 0.10 mg/mL, acetate buffer pH 4.0
Measured endpoint: Size (d, nm)

A selection of reference data follows.
{"columns": ["Compound", "Result value"],
 "data": [
  ["CCCCCCCCCCCCOCC(COCCCCCCCCCCCC)(COCCCCCCCCCCCC)COC(=O)CCCN1CCN(CCO)CC1", 143],
  ["CCCCCCCOC(=O)CCCCOc1cc(COC(=O)CCCN2CCN(C)CC2)cc(OCCCCC(=O)OCCCCCCC)c1", 102],
  ["CCCCCCCCCCCCOCC(COCCCCCCCCCCCC)(COCCCCCCCCCCCC)COC(=O)CCCN1CCN(C)CC1", 162]
]}

(A) CCCCCCCCCCCCCCCCCCOc1cc(COC(=O)CCCN2CCN(CCO)CC2)cc(OCCCCCCCCCCCCCCCCCC)c1
(B) CCCCC(CC)COc1cc(COC(=O)CCCN2CCN(C)CC2)cc(OCC(CC)CCCC)c1 (centres unmarked)
Would you kindly point out which of A and B has the smaller Size (d, nm) figure? Provide the label of your selected option as the answer.
B
